Assignment: determine reported IC50 for the given compounds.
target: Hepatitis C virus serine protease, NS3/NS4A (Hepatitis C virus, UniProt A3EZI9+D2K2A8); assay: Inhibitory concentration against hepatitis C virus NS3/4A protease on 18 hr preincubation in chromogenic assay; type: protein-complex assay, Hepacivirus hominis
Sequence (D2K2A8 whole entry): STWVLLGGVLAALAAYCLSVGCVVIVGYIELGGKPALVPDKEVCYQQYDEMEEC
Sequence (A3EZI9 whole entry): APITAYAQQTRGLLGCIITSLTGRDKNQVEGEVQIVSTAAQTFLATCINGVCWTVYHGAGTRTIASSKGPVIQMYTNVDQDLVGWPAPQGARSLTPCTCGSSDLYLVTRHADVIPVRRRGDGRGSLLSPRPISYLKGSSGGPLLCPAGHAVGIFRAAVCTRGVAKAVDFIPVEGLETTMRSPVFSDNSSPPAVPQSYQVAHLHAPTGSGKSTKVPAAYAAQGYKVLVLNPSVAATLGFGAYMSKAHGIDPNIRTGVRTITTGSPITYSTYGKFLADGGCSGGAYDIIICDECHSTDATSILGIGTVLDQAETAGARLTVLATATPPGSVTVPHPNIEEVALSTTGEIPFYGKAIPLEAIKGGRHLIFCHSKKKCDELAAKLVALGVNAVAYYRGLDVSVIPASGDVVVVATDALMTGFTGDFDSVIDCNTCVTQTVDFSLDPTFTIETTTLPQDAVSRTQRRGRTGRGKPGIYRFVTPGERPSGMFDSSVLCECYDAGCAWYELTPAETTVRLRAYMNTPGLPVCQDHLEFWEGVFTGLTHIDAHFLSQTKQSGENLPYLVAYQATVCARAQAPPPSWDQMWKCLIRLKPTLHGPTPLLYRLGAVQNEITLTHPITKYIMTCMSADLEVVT
Kindly answer with a numeric value in µM, unit omitted.

Inquiry: If you can, please state the reported IC50 value of "CC[C@@H]1C(=O)N(S(C)(=O)=O)[C@H]2CCN(C(=O)[C@@H](NC(=O)OC(C)(C)C)C(C)C)[C@H]12" .
Reply text: 22

Inquiry: Give the measured IC50 of CCC1C(=O)N(S(C)(=O)=O)[C@H]2CCN(C(=O)[C@@H](NC(=O)OC(C)(C)C)C(C)C)C12 (single isomer, unassigned) .
Reply text: 27

Inquiry: Find the recorded IC50 belonging to "CC[C@H]1C(=O)N(S(C)(=O)=O)[C@H]2CCN(C(=O)[C@@H](NC(=O)OC(C)(C)C)C(C)C)[C@H]12" and report it.
Reply text: 28

* * *

biological target: Hepatitis C virus serine protease, NS3/NS4A (Hepatitis C virus, UniProt A3EZI9+D2K2A8); experiment: Inhibitory concentration against hepatitis C virus NS3/4A protease on 2 hr pre-incubation in chromogenic assay; format: protein-complex assay, Hepacivirus hominis
Residues, ends and D or L forms follow the SMILES beside them. *: point of attachment. X1 = CCC1C(=O)N(S(C)(=O)=O)[C@H]2CCN(*)[C@H]12
propertyLabel: IC50 (µM)
Use µM as the unit, but write only the number.

Inquiry: # input molecule: CCC1C(=O)N(S(C)(=O)=O)[C@H]2CCN(C(=O)[C@@H](NC(=O)[C@@H](NC(=O)[C@H](CC(=O)O)NC(=O)[C@H](CCC(=O)O)NC(C)=O)C(C)C)C(C)C)[C@H]12 (stereo partly specified) (Ac-EDVV-X1) ; wanted: its IC50
Reply text: 69

* * *

biological target: Hepatitis C virus serine protease, NS3/NS4A (Hepatitis C virus) (UniProt D2K2A8+A3EZI9); assay: Compound was tested for inhibition of hepatitis C virus NS3/4A protease at 100 uM 2 hr pre-incubation in chromogenic assay; type: protein-complex assay; settings: Hepacivirus hominis
Residues, ends and D or L forms follow the SMILES beside them. *: point of attachment. X1 = CCC1C(=O)N(S(C)(=O)=O)[C@H]2CCN(*)[C@H]12
For each entry below, report its inhibition value.
Quick reminder: number only, in %, skip the unit.

Inquiry: Quick check: inhibition of CCC1C(=O)N(S(C)(=O)=O)[C@H]2CCN(C(=O)C(NC(=O)[C@@H](NC(=O)[C@H](CC(=O)O)NC(=O)[C@H](CCC(=O)O)NC(C)=O)C(C)C)C(C)C)[C@H]12 (single isomer, unassigned) ?
Reply text: 24

Inquiry: Reported inhibition, molecule CCC1C(=O)N(S(C)(=O)=O)[C@H]2CCN(C(=O)[C@@H]3CCCN3C(=O)[C@@H](NC(=O)[C@H](CC(=O)O)NC(=O)[C@H](CCC(=O)O)NC(C)=O)C(C)C)[C@H]12 (some centres not stated) (Ac-EDVP-X1) : ____
Reply text: 5

Inquiry: Quick one: inhibition for CCC1C(=O)N(S(C)(=O)=O)[C@H]2CCN(C(=O)[C@@H](NC(=O)[C@@H](NC(=O)[C@H](CC(=O)O)NC(C)=O)C(C)C)C(C)C)[C@H]12 (some centres not stated) ?
Reply text: 68

Inquiry: Given the molecule CCC1C(=O)N(S(C)(=O)=O)[C@H]2CCN(C(=O)[C@@H](NC(=O)OC(C)(C)C)C(C)C)C12 (single isomer, unassigned) , what is its reported inhibition?
Reply text: 52

Inquiry: Find the recorded inhibition belonging to CCC1C(=O)N(S(C)(=O)=O)[C@H]2CCN(C(=O)[C@@H](NC(=O)[C@@H](NC(C)=O)C(C)C)C(C)C)[C@H]12 (some centres not stated) and report it.
Reply text: 21

Inquiry: Tell me the measured inhibition of CCC1C(=O)N(S(C)(=O)=O)[C@H]2CCN(C(=O)CNC(=O)[C@@H](NC(=O)[C@H](CC(=O)O)NC(=O)[C@H](CCC(=O)O)NC(C)=O)C(C)C)[C@H]12 (some centres not stated) (Ac-EDVG-X1) , please.
Reply text: 10

Inquiry: Can you look up the measured inhibition of CCC1C(=O)N(S(C)(=O)=O)[C@H]2CCN(C(=O)[C@@H](N)C(C)C)[C@H]12 (some centres not stated) for me?
Reply text: 11

* * *

molecular target: Hepatitis C virus serine protease, NS3/NS4A (Hepatitis C virus, UniProt A3EZI9+D2K2A8); test: Inhibitory concentration against hepatitis C virus NS3/4A protease on 18 hr preincubation in chromogenic assay; type: protein-complex assay, Hepacivirus hominis
Residues, ends and D or L forms follow the SMILES beside them. *: point of attachment. X1 = CCC1C(=O)N(S(C)(=O)=O)[C@H]2CCN(*)[C@H]12
propertyLabel: pIC50
Keep in mind that pIC50 stands for -log10 of concentration in molar terms.

Inquiry: Kindly state the measured pIC50 obtained for "CC[C@H]1C(=O)N(C(C)=O)[C@H]2CCN(C(=O)[C@@H](NC(=O)OC(C)(C)C)C(C)C)[C@H]12" with Hepatitis C virus serine protease, NS3/NS4A (Hepatitis C virus, UniProt A3EZI9+D2K2A8).
Reply text: 3.83

Inquiry: Hepatitis C virus serine protease, NS3/NS4A (Hepatitis C virus, UniProt A3EZI9+D2K2A8) / pIC50 / CCC1C(=O)N(S(C)(=O)=O)[C@H]2CCN(C(=O)[C@@H](NC(=O)[C@@H](NC(=O)[C@H](CC(=O)O)NC(=O)[C@H](CCC(=O)O)NC(C)=O)C(C)C)C(C)C)[C@H]12 (stereo partly drawn) (Ac-EDVV-X1) : value?
Reply text: 4.72

Inquiry: Query the reported pIC50 for Hepatitis C virus serine protease, NS3/NS4A (Hepatitis C virus, UniProt A3EZI9+D2K2A8); item: "CC[C@@H]1C(=O)N(C(C)=O)[C@H]2CCN(C(=O)[C@@H](NC(=O)OC(C)(C)C)C(C)C)[C@H]12"
Reply text: 4.35
